Test system: RPMI-8226 leukemia
ASSAY DETAILS: NCI-60 one-dose screen, 48 h
RUN CONDITIONS: 10 µM unless noted
About 83,000 compounds went through this panel and 20% of them were active in at least one assay; those are over-represented in the sample as a whole. Active and inactive are the calls of the source. How the source made its calls: active means growth percent below 10; inactive means the rest.
Select the correct class. Options are active, inactive and nothing else.

Below, 2 molecules whose answers are already recorded.
Task item: Write down the call the test reported for this molecule. Item: CCSc1ncnc2c1ncn2C1OC(CO)C(O)C1O (stereo not given)
Reply: inactive

Task item: Query CC(=O)OCCCCCCn1c2ccccc2c2c3c(c4c5ccccc5n(C)c4c21)C(=O)N(O)C3=O next
Reply: inactive

***
Task item: Call for entry N#CCCCCCn1c2ccccc2c2c3c(c4c5ccccc5n(CCCCCC#N)c4c21)C(=O)N(O)C3=O :
Reply: inactive

Task item: Please do the same for COc1ccc(C(=O)c2cc(OC)c(OC)c(OC)c2)cc1/C=C/C(=O)c1cc(OC)c(OC)c(OC)c1 as well.
Reply: inactive

Task item: Follow-up item: O=C1NC(c2ccc(Cl)c(Cl)c2)=C/C1=C\c1ccccc1
Reply: inactive

Task item: Subsequent entry: N=C(N)c1ccc(S(N)(=O)=O)cc1
Reply: inactive

Task item: // repeat for OCC12CCCC(CO)(COC1)C2O (stereo not given) and report
Reply: inactive

Task item: Also COC(=O)[C@]12CC[C@@H](C)[C@H](C)[C@@H]1C1=CC[C@@H]3[C@@]4(C)CC(=O)[C@H](OC(=O)c5ccco5)[C@@]5(C)COC(=C45)C[C@@]3(C)[C@]1(C)CC2 , if possible.
Reply: inactive

Task item: # iterate: COc1cccc(-c2nn(-c3ccccc3)cc2-c2ccnc(NCCCNS(=O)(=O)c3ccc(Br)cc3)c2)c1
Reply: inactive

Task item: One more molecule: N#C/C(=C\c1ccc(-c2ccc(Cl)cc2)o1)c1nc(-c2ccco2)cs1
Reply: inactive

Task item: Input COc1ccc(-c2nc3ccccn3c2-c2nc3ccc(Cl)cc3[nH]2)cc1
Reply: inactive

Task item: Again, but for Nc1nc2c3ccncc3cc(-c3cccc(Cl)c3)c2c2cnccc12
Reply: active

---

Test system: COLO 205 colon
ASSAY DETAILS: NCI-60 one-dose screen, 48 h
RUN CONDITIONS: 10 µM unless noted
About 83,000 compounds went through this panel and 20% of them were active in at least one assay; those are over-represented in the sample as a whole. Activity calls are given as the source filed them. How the source made its calls: active means growth percent below 10; inactive means the rest.
Classes to choose from: yes (active), no (inactive)

Here's what some known entries look like.
Task item: Hi, sorry to bother you, what did the test record for CCOC(=O)c1ccc2c(c1)[n+](=O)c(C(=O)C1CCCS1)c(C(F)(F)F)n2[O-] (centres undefined) ?
Reply: yes

Task item: Queued: CCCCCCCC(=O)SCC/C=C/[C@@H]1CC(=O)NCc2cccc(n2)CN(Cc2ccc(Cl)cc2)CC(=O)N[C@@H](C(C)C)C(=O)O1
Reply: yes

Task item: COc1cnc2c(c1)C(=O)c1c-2n(CCCNC2=NCCS2)c(=O)c2cc([N+](=O)[O-])ccc12 , same question.
Reply: yes

Task item: And then COc1cccc(-c2nn(-c3ccccc3)cc2-c2ccnc(NCCCNS(=O)(=O)c3ccc(Cl)cc3)c2)c1 , what is it?
Reply: no

Task item: Please answer likewise for CCCCCCCN(CCCCCCC)C(=N)c1ccnc2ccccc12
Reply: yes

Task item: Again, but for N#C/C(=C\c1ccc(-c2ccc(F)cc2)o1)c1nc(-c2ccco2)cs1
Reply: no

Task item: Next molecule: N=c1c(S(=O)(=O)c2ccccc2)cc2c(=O)n3ccccc3nc2n1C1CCCC1
Reply: no

Task item: Okay, and CC1(C)CC[C@]2(C(=O)Nc3ccccn3)CC[C@]3(C)C(=CC[C@@H]4[C@@]5(C)C/C(=C/c6ccncc6)C(=O)C(C)(C)[C@@H]5CC[C@]43C)[C@@H]2C1 ?
Reply: yes

More entries:
Task item: What did this assay record as the result for Cc1cccc(C)c1NC(=O)CSC(=S)N1CCCCC1 ?
Reply: no

Task item: For C=C1C(=O)O[C@H]2[C@H]1CC/C(Cn1cc(-c3ccc(OC)cc3)nn1)=C\CC[C@@]1(C)O[C@@H]21 then?
Reply: yes

Task item: Now this one: Nc1ccc(Br)cn1
Reply: no

Task item: # repeat for CCN1CCN(C(=O)[C@@]2(C)CC[C@]3(C)CC[C@]4(C)C(=CC(=O)[C@@H]5[C@@]6(C)CC[C@H](OCCC#N)C(C)(C)[C@@H]6CC[C@]54C)[C@@H]3C2)CC1
Reply: no

Task item: # iterate: C[C@H]1OC(=O)/C=C/[C@@H](O)[C@@H](O)CCCCCCCC[C@@H]1O
Reply: no

Task item: // next record CC1=NN(c2ccc(S(=O)(=O)O)cc2Cl)C(=O)C1
Reply: no

---

System: KM12 colon
ASSAY DETAILS: NCI-60 one-dose screen, 48 h (100 = growth as untreated, 0 = no growth, -100 = all killed)
RUN CONDITIONS: 10 µM unless noted
This is part of a sample that, as a whole, favours compounds with a hit. Of some 83,000 tested, about 20% had one in any assay.
Known growth of a selection of compounds
Value expressed in %; do not type the unit.

Use these answered entries as a reference point.
Task item: Please report the recorded growth for COc1ccc(/C=C/C(=O)c2ccc([N+](=O)[O-])cc2)cc1 .
Reply: 98.6

Task item: Would you mind doing C=C1CC[C@@H](C(=O)OC)Cc2nc(C)ccc21 as well?
Reply: 108

Task item: Another compound: CCOC(=O)C/C(=C\c1ccccc1)C(C)=O
Reply: 101

Task item: And COc1cc2c(cc1-c1c(C)noc1C)ncc1nc(C3CCC(F)(F)CC3)n([C@@H](C)COC(F)F)c12 ?
Reply: 41.8

Task item: Please answer likewise for Cc1cc(C)n(Cc2cc(C(C)(C)C)cc(C(C)(C)C)c2)c(=O)c1C#N
Reply: 97.5

---
Task item: Look at this compound and give its reported growth. COc1cccc(-c2nn(-c3ccccc3)cc2-c2ccnc(NCCNS(=O)(=O)c3ccccc3)c2)c1
Reply: 21.7

Task item: Same question, Cn1cc(-c2nc(-c3cn(C)c4ncccc34)cs2)c2ccccc21 this time
Reply: 22.5

Task item: Another compound to check: CC(=O)n1c(/C(C#N)=C/c2ccc(N(C)C)cc2)cc2ccccc21
Reply: 31.6

Task item: Input c1ccc2[nH]c(-c3cc(-c4ccc5c(c4)OCO5)n[nH]3)nc2c1
Reply: 28.2

Task item: Entry Oc1cccc2oc(=S)[nH]c12 please
Reply: 115

Task item: Entry Cc1cc2nc3c4cc([N+](=O)[O-])cc([N+](=O)[O-])c4n(CCN(C)C)c3nc2cc1C please
Reply: 77.1

Task item: Entry Cc1ccc(S(=O)(=O)Nc2ccc(-c3cc(-c4cccc(F)c4)c(C#N)c(N)n3)cc2)cc1 please
Reply: 46.7

Task item: Continue with Nc1c(C(=O)Nc2c(Cl)cccc2Cl)sc2nc3c(cc12)C(=O)CCC3
Reply: 30.5

Task item: Please answer likewise for C/C(=N\NC(=O)C(C)SC(C)C(=O)N/N=C(\C)c1cccnc1)c1cccnc1 (stereo unspecified)
Reply: 107

Task item: Also need O=C(O[C@@H]1Cc2c(O)cc(O)cc2O[C@@H]1c1cc(O)c(O)c(O)c1)c1cc(O)c2c(c1)OCO2 , thanks.
Reply: 101

Task item: Do the same for CCCCCC1CCCCN1C(=O)OCC (stereo unspecified) please
Reply: 110

Task item: Ok, now NC(=O)[C@@H]1CC2CCC1C2 (stereo partly specified)
Reply: 102

Task item: // next record COc1cc(/C=C/c2cc(/C=C/c3ccc(O)c(OC)c3)n(-c3ccc(Cl)cc3)c(=O)n2)ccc1O
Reply: 77

Task item: Can you check CCC(=O)c1c(C)[nH]c(C)c1C next?
Reply: 102

Task item: Also check CC(=O)OCCCCCCn1c2ccccc2c2c3c(c4c5ccccc5n(C)c4c21)C(=O)N(O)C3=O
Reply: 68.8

Task item: Entry to check: O=[N+]([O-])c1ccc(/C=N\Nc2ccccc2)cc1
Reply: 36.1

---

System: UACC-257 melanoma
ASSAY DETAILS: NCI-60 one-dose screen, 48 h (100 = growth as untreated, 0 = no growth, -100 = all killed)
RUN CONDITIONS: 10 µM unless noted
About 83,000 compounds went through this panel and 20% of them were active in at least one assay; those are over-represented in the sample as a whole.
Class boundaries, taken from values of growth, are as follows: 0 = under 70%, 1 = from 70% up to 90%, 2 = 90% and over

Some solved cases for reference:
Task item: Returns: class label. Input: Fc1cccc(-c2[nH]nc3nc(Nc4cccnc4)sc23)c1
Reply: 1

Task item: Proceed to COc1ccc2[nH]cc(-c3nc(-c4c[nH]c5ncccc45)cs3)c2c1
Reply: 0

Task item: Entry to check: NC1=C(C/C(N)=N\O)C(c2ccccc2Cl)c2c(ccc3ccccc23)O1 (stereo not given)
Reply: 2

Task item: Same again, this time with CC(C)=CCC/C(C)=C/CC/C(C)=C/CSC[C@H](NC(=O)CCCCCN1CCN(C)CC1)C(=O)NC1CCCCCC1
Reply: 1

Task item: Entry to check: COc1cnc2c(c1)C(=O)c1c-2n(CCCNC(C)C)c(=O)c2cc([N+](=O)[O-])ccc12
Reply: 0

Next:
Task item: Form: Item = CC(=O)c1c(C)[nH]c(-c2nc3ccc(N4CCN(C)CC4)cc3[nH]2)c1-c1ccc2c(c1)OCCO2 ; Class = ?
Reply: 0

Task item: Also, Nc1c2c(nc3ccc(Cl)cc13)CC(c1ccccc1)CC2=O (stereo not given) please.
Reply: 0
